All figures here come from ChEMBL document CHEMBL1129008.

System tested: Histamine H1 receptor (Cavia porcellus)
Experiment: Antagonistic activity against H1 receptor was determined in histamine induced contractions of guinea pig isolated whole ileum
Format: functional, tissue-based
Reported pKB values follow for various compounds

>>> result("Clc1ccc(CCc2noc(CCc3c[nH]cn3)n2)cc1")
"< 5"
>>> result("Clc1ccc(Cc2n[nH]c(CCCc3c[nH]cn3)n2)cc1")
"< 5"
>>> result("N=C(NCc1ccc(Cl)cc1)SCCCc1c[nH]cn1")
"< 6"
>>> result("Clc1ccc(Cc2noc(CCCc3c[nH]cn3)n2)cc1")
"< 5"

Continue with the next compound.
Recorded result, S=C(NC1CCCCC1)N1CCC(c2cnc[nH]2)CC1 [THIOPERAMIDE] , pKB: < 5
